Measurement record for human PDE1B (Homo sapiens (Human), UniProt Q01064); quantity recorded: IC50.

Observe how each entry below is paired with its result.
molecule | IC50
COc1ccc(Cn2c(=O)n3ncnc3c3c4c(sc32)COCC4)cc1F | 0.1 to 1 µM
COc1ccc(Cn2c(=O)n3ncnc3c3cc(C(C)=O)cnc32)cc1 | 0.1 to 1 µM
COc1ccc(Cn2c(=O)n3ncnc3c3c(CN4C[C@@H](C)O[C@@H](C)C4)csc32)cc1 | 0.1 to 1 µM
O=c1n(Cc2ccc(-c3ccccc3)cc2)c2sc(Cc3ccccc3)cc2c2ncnn12 | 1 to 10 µM
O=c1n(Cc2ccc(Cl)cc2)c2sc3c(c2c2ncnn12)CCN(CC(F)(F)F)C3 | 0.1 to 1 µM
CC(C)CCc1cc2c(s1)n(Cc1cccc(Cl)c1)c(=O)n1ncnc21 | 1 to 10 µM

// query Supply IC50 value. Item: `COc1c(F)cc(Cn2c(=O)n3ncnc3c3cc(CN4C[C@@H](C)O[C@@H](C)C4)cnc32)cc1F`
// result 0.1 to 1 µM

// query Look up and report measured IC50 for this entry: `CC(C)CCc1cc2c(s1)n(Cc1ccccc1Cl)c(=O)n1ncnc21`
// result 1 to 10 µM

// query Tell me its IC50 given `O=c1n(Cc2ccc(Cl)cc2)c2sc(Cc3ccccc3)cc2c2ncnn12` as the entry.
// result 0.1 to 1 µM

// query Given the molecule `COc1ccc(Cn2c(=O)n3ncnc3c3cc(N[C@H]4CCCC[C@@H]4N)cnc32)cc1` , write its reported IC50.
// result 1 to 10 µM

====

# system: human PDE1B (Homo sapiens (Human), UniProt Q01064)
# measurement_protocol: PDE1B inhibitory assay (IMAP TR-FRET)
# condition_summary: PDE1B pIC50, negative log of half-maximal molar inhibitory concentration; 200 nM FAM-cAMP, Calmodulin, CaCl2
pIC50: −log10 of the molar value.
In this section we review reported pIC50 values for a set of molecules.

// known answers, use as guide
sample_smiles | pIC50
COc1ccc(Cn2c(=O)n3ncnc3c3ncc(CN4CCCCC4)cc32)cc1 | 5.00 to 6.00
COc1ccc(Cn2c(=O)n3ncnc3c3cc(CN4CCN(S(C)(=O)=O)CC4)cnc32)cc1 | 6.00 to 7.00
O=c1n(Cc2cccc(Cl)c2)c2sc3c(c2c2ncnn12)CCCC3 | 6.00 to 7.00
Cc1cc(Cn2c(=O)n3ncnc3c3cc(CN4C[C@@H](C)O[C@@H](C)C4)cnc32)ccc1F | 6.00 to 7.00
Cc1csc2c1c1ncnn1c(=O)n2Cc1cccc(Cl)c1 | 6.00 to 7.00

// query Read off the recorded pIC50 for `Cc1ccc(Cn2c(=O)n3ncnc3c3c4c(sc32)COCC4)cc1`
// result 6.00 to 7.00

// query Please look at this molecule and report its pIC50: `Cc1cc2c(s1)n(Cc1ccccc1)c(=O)n1ncnc21`
// result 5.00 to 6.00

// query Retrieve pIC50 measured for `COc1ccc(Cn2c(=O)n3ncnc3c3ccc(CNc4ccccc4)nc32)cc1` and print it.
// result 6.00 to 7.00

// query Note down pIC50 recorded for `Cc1csc2c1c1ncnn1c(=O)n2Cc1ccccc1`
// result 6.00 to 7.00

====

# system: human PDE1B (Homo sapiens (Human))
# measurement_protocol: PDE1B inhibitory assay (IMAP TR-FRET)
# condition_summary: negative log of half-maximal molar inhibitory concentration; 200 nM FAM-cAMP, Calmodulin, CaCl2
PDE1B pIC50 by entry:

molecule | PDE1B pIC50
COc1ccc(Cn2c(=O)n3ncnc3c3cc(-c4cc(C(F)(F)F)nn4C)sc32)cc1 [Example 41] | >7
COc1ccc(Cn2c(=O)n3ncnc3c3c4c(sc32)N(C(=O)C2CCOC2)CCC4)cc1 (stereo not shown) [Example 175] | >7
CCC1CN(Cc2cnc3c(c2)c2ncnn2c(=O)n3Cc2ccc(OC)cc2)CCO1 (stereo not shown) [Example 224] | >7

Now for another entry.
// query # return PDE1B pIC50 for Cc1cc2c(s1)n(Cc1ccc(-c3ccccc3)cc1)c(=O)n1ncnc21 [Example 14] , test system: human PDE1B (Homo sapiens (Human))
// result <5
